In this section we review reported growth values for a set of molecules.
tested on: MDA-MB-468 breast; assay: NCI-60 one-dose screen, 48 h (100 = growth as untreated, 0 = no growth, -100 = all killed); conditions: 10 µM unless noted
Compounds without any hit were thinned out: in the full panel of roughly 83,000, 20% have a hit. Activity calls are given as the source filed them. How the source made its calls: active means growth percent below 10; inactive means the rest.
VALUE KIND: growth

>>> result("CCOc1cc(C=C(C#N)C#N)cc(Br)c1O")
"119% (inactive)"
>>> result("O=C1N[C@@H]2[C@@H](O)[C@@H](O)[C@H](O)C[C@H]2c2cc3c(c(O)c21)OCO3")
"-45.8% (active)"
>>> result("O=C(O)c1ccccc1N(CCO)CCCl")
"95.1% (inactive)"
>>> result("CC[C@H](C)[C@H](NC(=O)[C@H]1CCCCN1C)C(=O)N(C)[C@H](CCc1nc(C(=O)N[C@@H](Cc2ccccc2)C[C@H](C)C(=O)OC)cs1)C(C)C")
"35% (inactive)"
>>> result("COC(=O)[C@@H](C)C[C@H](Cc1ccccc1)NC(=O)c1csc([C@@H](C[C@H](C(C)C)N(C)C(=O)[C@H](C)NC(=O)[C@H]2CCCN2C)OC(C)=O)n1")
"25.8% (inactive)"
>>> result("O=C(CCF)c1ccc(O)cc1")
"108% (inactive)"
>>> result("N#CC1C(C#N)C2CCC1C1C2N1c1ccccc1 (stereo not given)")
"102% (inactive)"
>>> result("C=CCc1ccc(OC(=O)Cc2ccccc2)c(OC)c1")
"100% (inactive)"
>>> result("CC1=CC(=O)CCC12CCOC2=O (stereo not given)")
"105% (inactive)"
>>> result("C[C@]12CCc3sc(Nc4ccc(F)cc4)nc3C1=CC[C@@H]1[C@@H]2CC[C@]2(C)C(=O)CC[C@@H]12")
"40.8% (inactive)"
